Field: IC50. System: SYK kinase (Homo sapiens, UniProt P43405). Provenance: assorted publications.

As a guide, the following entries are already answered.
> print(dat)
                                   compound   endpoint.result
1  Brc1cccc2c1nc(Nc1cnn(C3CCOCC3)c1)c1[nH]ncc12      10 to 100 nM
2  CN1CC(=O)N(C)c2cccc(c2)Nc2ncc(F)c(n2)Nc2ccc3c(c2)NC(=O)C(C)(O3)C1=O (stereo not shown)  3000 to 50000 nM
3   NS(=O)(=O)c1ccc(Nc2nccc(-c3nccs3)n2)cc1          < 500 nM
4  CC(C)n1cc(Nc2nc3ccc(S(C)(=O)=O)cc3c3cn[nH]c23)c(C#N)n1    100 to 1000 nM
5  COc1cc(Nc2nc(-c3cnc4c(c3)NCCO4)cn3ccnc23)ccc1N1CC(C)(O)C1             33 nM

Prompt: Fill in: IC50 on SYK kinase (Homo sapiens, UniProt P43405), entry CC(=O)N1C[C@H](O)C[C@@H]1c1nc(-c2ccc(C3(C)COC3)cc2)c2cnc3[nH]ccc3n12
Response: < 10 nM

Prompt: Fill in: IC50 on SYK kinase (Homo sapiens, UniProt P43405), entry Cn1cc(-c2ccnc3cc(-c4ccc(OCCN5CCCCC5)cc4)oc23)cn1
Response: 300 to 3000 nM

Prompt: Fill in: IC50 on SYK kinase (Homo sapiens, UniProt P43405), entry Cc1ccc(-n2nc(C(C)(C)C)cc2NC(=O)Nc2ccc(OCc3ccnc(Nc4cnc(CC(=O)N(C)C)cn4)c3)c3ccccc23)cc1
Response: > 14600 nM

Prompt: Fill in: IC50 on SYK kinase (Homo sapiens, UniProt P43405), entry CN1CCC(n2cc(Nc3nc(-c4cnn(C)c4)nc4cn[nH]c34)cn2)CC1
Response: 10 to 100 nM

Prompt: Fill in: IC50 on SYK kinase (Homo sapiens, UniProt P43405), entry COc1cc(-c2cc3nccc(-c4cc(OC(C)C)cc(C(=O)O)c4)c3o2)cc(OC)c1OC
Response: < 300 nM

Prompt: Fill in: IC50 on SYK kinase (Homo sapiens, UniProt P43405), entry CN1CCN(c2ccc(Nc3nc(NC4CC4)c4nc[nH]c4n3)cc2)CC1
Response: 5 nM

Prompt: Fill in: IC50 on SYK kinase (Homo sapiens, UniProt P43405), entry CC1(C)C(=O)Nc2cc(Nc3nc4c(N5CC[C@]6(CNC(=O)C6)C5)nccn4n3)ccc21
Response: 100 to 300 nM

Prompt: Fill in: IC50 on SYK kinase (Homo sapiens, UniProt P43405), entry c1cn2cc(-c3ccc4c(c3)CNCCO4)nc(Nc3ccc(N4CCOCC4)cc3)c2n1
Response: 18 nM

Prompt: Fill in: IC50 on SYK kinase (Homo sapiens, UniProt P43405), entry COCCOCCOCCOc1cc(Nc2cc(Oc3ccc(NC(=O)Nc4cc(C(C)(C)C)cc([S+](C)[O-])c4OC)c4ccccc34)ccn2)cc(OC)c1 (stereo not shown)
Response: 134 nM

Prompt: Fill in: IC50 on SYK kinase (Homo sapiens, UniProt P43405), entry N[C@H]1COCC[C@H]1Nc1nc(-c2cc3ccc(F)cc3s2)c2c(c1F)CNC2=O
Response: 0.158 nM

Prompt: Fill in: IC50 on SYK kinase (Homo sapiens, UniProt P43405), entry CC(C)Cn1cc(Nc2nc(-c3ccc4cn[nH]c4c3)nc3cn[nH]c23)cn1
Response: 10 to 100 nM
